FYI, the data here is from the supplement of paper PMC10065799.

system: c-Abl (mouse); assay: phosphorylation enrichment, bacterial display (enrichment ratio); higher = better substrate or ligand; peptides without Tyr show the background
metric: phosphorylation enrichment
One number for each entry.

Observe how each entry below is paired with its result.
sequence-record	phosphorylation enrichment
TSQSQYFSFRE [CCDC170_Y323]	0.604
FSDQVYRQHRK [TH_Y230_R233H]	0.819
EEKSCYILHSS [PATJ_Y783_E780K]	0.779
WAFNLYDINKY [KCNIP3_Y174_D179Y]	0.709
LKGQVYILGGE [ASS1_Y359_R363G]	1.32

Give one value of phosphorylation enrichment per listed sequence.
1. VASMFYTLVIP [OR8K3_Y277_I275M]
2. GDFFCYLAEVA [YWHAG_Y133_R132C_YF]
3. RGMVMYTSKDR [ZG16B_Y136]
4. DTKPVYQNLRQ [BOD1_Y82_A81V]
5. RYLTRYIYNRE [HLA-DQB1_Y62_V59L]
6. FRIGPYQPSVP [MATR3_Y784_N787S_YF]
7. MKGDFYRSLAE [YWHAG_Y131_Y133S_YF]

-- reply
[0.691, 1.12, 0.428, 0.708, 1.07, 0.536, 0.585]

###

system: Fer (mouse); assay: phosphorylation enrichment, bacterial display (enrichment ratio); higher = better substrate or ligand; peptides without Tyr show the background
metric: phosphorylation enrichment

Each sequence below has a reported value. Please supply its phosphorylation enrichment.
1. ISITPYPAILH [IFT80_Y588]
2. QTENKYDSVSG [EIF2AK3_Y565]
3. LTECGYSFTTT [ACTB_Y198_R196C]

-- reply
0.37
0.384
0.733

###

target: Grb2 SH2 (UniProt P62993); experiment: SH2 binding enrichment of the phosphorylated peptide, bacterial display (enrichment ratio); higher = better substrate or ligand; peptides without Tyr show the background
Sequence (P62993 whole entry, looked up): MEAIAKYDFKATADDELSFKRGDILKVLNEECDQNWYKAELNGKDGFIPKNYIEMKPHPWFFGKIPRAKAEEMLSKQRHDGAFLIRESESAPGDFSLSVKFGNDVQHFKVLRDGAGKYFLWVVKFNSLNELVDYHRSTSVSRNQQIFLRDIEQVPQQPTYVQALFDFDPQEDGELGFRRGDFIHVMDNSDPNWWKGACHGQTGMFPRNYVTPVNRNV
Would you kindly list SH2 binding enrichment for each of these sequences?
One number for each entry.

Examples from the recorded data:
sequence-record	SH2 binding enrichment
PADSGYPAFLG [ATP6V1A_Y374_YF]	0.765
PTTKTYFPHFD [HBA1_Y43]	0.825
IVFVICDEVVK [SLC25A1_Y297_Y297C]	1.12

// for each sequence in input: emit SH2 binding enrichment
1. GNEEAYGRSHI [FAM171B_Y522]
2. GITTGYLVLKE [DNMT3B_Y588_A585T]
3. KDHPDYKFQRR [SOX10_Y171_P175R_YF]
4. SKEPFYVHCIK [MYO1D_Y586_R588H_YF]
5. RRIHSYRGYLW [VHL_Y112_H115Y]

-- reply
1. 0.796
2. 0.907
3. 1
4. 0.981
5. 0.902

For each listed entry, give its SH2 binding enrichment.
1. HKLSYCEYDFE [BTK_Y40_Y40C]
2. ILTYKYLQIPM [KIT_Y547_K550I]
3. YPKVRYHWLVL [APTX_Y214_A212V]
4. RKRQFYLYKGK [RSPO4_Y112_C107R]
5. EATKGHLDDPT [G6PD_Y322_Y322H]
6. WFKKFYDANYD [MAPRE2_Y158]
7. HPWPQYTTRAP [FNDC1_Y1281]

-- reply
[1.3, 0.893, 1.05, 0.965, 0.815, 0.82, 1.12]

Provide reported SH2 binding enrichment for each item, in the same order as listed.
1. WRPFGYPRRRR [BCS1L_Y181]
2. KRRGPYEMSPS [PLPP7_Y172_T174M]

-- reply
1: 0.731; 2: 0.532
